Values compiled from patent US8865703B2.

- target or system: B-Raf (V600E)-kinase (Homo sapiens, UniProt P15056, V600E)
- Sequence (P15056 whole entry V600E): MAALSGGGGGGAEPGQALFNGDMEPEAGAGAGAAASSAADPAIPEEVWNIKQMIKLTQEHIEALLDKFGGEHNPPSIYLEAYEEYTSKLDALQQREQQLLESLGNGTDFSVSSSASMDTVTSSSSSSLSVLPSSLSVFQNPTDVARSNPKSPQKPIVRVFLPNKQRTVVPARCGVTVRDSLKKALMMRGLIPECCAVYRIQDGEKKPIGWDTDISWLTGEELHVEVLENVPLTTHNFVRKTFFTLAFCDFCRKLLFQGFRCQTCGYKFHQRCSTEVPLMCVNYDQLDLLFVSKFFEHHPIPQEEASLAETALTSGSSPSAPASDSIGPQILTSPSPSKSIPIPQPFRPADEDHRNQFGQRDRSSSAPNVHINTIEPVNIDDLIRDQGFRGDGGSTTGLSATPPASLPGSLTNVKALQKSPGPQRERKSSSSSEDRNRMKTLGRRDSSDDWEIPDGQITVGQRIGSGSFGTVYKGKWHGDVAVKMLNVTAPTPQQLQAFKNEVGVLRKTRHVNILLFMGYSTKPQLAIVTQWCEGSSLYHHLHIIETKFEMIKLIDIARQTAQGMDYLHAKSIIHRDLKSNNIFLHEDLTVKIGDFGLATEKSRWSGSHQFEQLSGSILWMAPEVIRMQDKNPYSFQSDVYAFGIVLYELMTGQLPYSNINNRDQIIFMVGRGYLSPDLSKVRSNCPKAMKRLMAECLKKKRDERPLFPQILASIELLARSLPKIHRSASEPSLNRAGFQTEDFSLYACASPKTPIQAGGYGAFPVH
- assay name: Kinase test B-Raf (V600E)
- assay context: 1 h incubation with kinase before start, 250 μM ATP, biotinylated MEK1 substrate
pIC50: −log10 of the molar value.
endpoint label: pIC50

Here are 10 molecules together with their reported answers.
# molecule, target or system, value
measured = [
    ("CCN1CCN(c2cncc(-c3cn(-c4cc(NC(=O)c5cc(C(C)C)n(C(C)(C)C)n5)cnc4C)nn3)c2)CC1 [I-39]", "B-Raf (V600E)-kinase (Homo sapiens, UniProt P15056, V600E)", 7.60),
    ("COCCCN1CCN(c2cncc(-c3cn(-c4cc(NC(=O)c5ccc(C(C)(C)C)s5)cnc4C)nn3)c2)CC1 [I-9]", "B-Raf (V600E)-kinase (Homo sapiens, UniProt P15056, V600E)", 8.15),
    ("CCOCCN1CCN(c2cncc(-c3cn(-c4cc(NC(=O)c5ccc(C(C)(C)C)s5)cnc4C)nn3)c2)CC1 [I-8]", "B-Raf (V600E)-kinase (Homo sapiens, UniProt P15056, V600E)", 8.10),
    ("CCN1CCN(c2cncc(-c3cn(-c4cc(NC(=O)c5ccc(C(C)(C)C)s5)cnc4C)nn3)c2)CC1 [I-12]", "B-Raf (V600E)-kinase (Homo sapiens, UniProt P15056, V600E)", 8.52),
    ("Cc1ncc(NC(=O)c2cc(C)n(C(C)(C)C)n2)cc1-n1cc(-c2cncc(N3CCN(C(C)(C)C)CC3)c2)nn1 [I-21]", "B-Raf (V600E)-kinase (Homo sapiens, UniProt P15056, V600E)", 8.05),
    ("CCCc1cc(C(=O)Nc2cnc(C)c(-n3cc(-c4cncc(N5CCN(C)CC5)c4)nn3)c2)nn1C(C)(C)C [I-36]", "B-Raf (V600E)-kinase (Homo sapiens, UniProt P15056, V600E)", 7.74),
    ("COCCCN1CCN(c2cncc(-c3cn(-c4cc(NC(=O)c5ccc(C(C)(C)C)o5)cnc4C)nn3)c2)CC1 [I-6]", "B-Raf (V600E)-kinase (Homo sapiens, UniProt P15056, V600E)", 8.30),
    ("Cc1ncc(NC(=O)c2ccc(C(C)(C)C)o2)cc1-n1cc(-c2cncc(N3CCN(C(C)C)CC3)c2)nn1 [I-1]", "B-Raf (V600E)-kinase (Homo sapiens, UniProt P15056, V600E)", 8.40),
    ("CCCc1cc(C(=O)Nc2cnc(C)c(-n3cc(-c4cncc(N5CCN(CCC)CC5)c4)nn3)c2)nn1C(C)(C)C [I-35]", "B-Raf (V600E)-kinase (Homo sapiens, UniProt P15056, V600E)", 7.66),
    ("CCCc1cc(C(=O)Nc2cnc(C)c(-n3cc(-c4cncc(N5CCN(CC)CC5)c4)nn3)c2)nn1C(C)(C)C [I-33]", "B-Raf (V600E)-kinase (Homo sapiens, UniProt P15056, V600E)", 7.80),
]

a: Cc1ncc(NC(=O)c2ccc(C(C)(C)C)s2)cc1-n1cc(-c2cncc(N3CCN(C(C)C)CC3)c2)nn1 [I-13]
b: Cc1ncc(NC(=O)c2ccc(C(C)(C)C)o2)cc1-n1cc(-c2cncc(N3CCN(C)CC3)c2)nn1 [I-2]
## Task For the two items a and b , which reports the higher pIC50 value? Please respond with the label that marks your chosen entry.
## Result b
(b: 8.70, a: 8.30)

A: Cc1ncc(NC(=O)c2cc(C)n(C(C)C)n2)cc1-n1cc(-c2cncc(N3CCCN(C)CC3)c2)nn1 [I-50]
B: Cc1ncc(NC(=O)c2cc(C)n(C(C)(C)C)n2)cc1-n1cc(-c2cncc(N3CCN(C4CC4)CC3)c2)nn1 [I-15]
## Task For the two items A and B , which reports the higher pIC50 value? Please respond with the label that marks your chosen entry.
## Result A
(A: 8.30, B: 7.70)
